# tgt: 3T3 cells that over-express human cMet (Homo sapiens, UniProt P08581)
# Construct: expressed in transfected cells; host or cells: 3T3 cells
# Sequence (P08581 25-1390): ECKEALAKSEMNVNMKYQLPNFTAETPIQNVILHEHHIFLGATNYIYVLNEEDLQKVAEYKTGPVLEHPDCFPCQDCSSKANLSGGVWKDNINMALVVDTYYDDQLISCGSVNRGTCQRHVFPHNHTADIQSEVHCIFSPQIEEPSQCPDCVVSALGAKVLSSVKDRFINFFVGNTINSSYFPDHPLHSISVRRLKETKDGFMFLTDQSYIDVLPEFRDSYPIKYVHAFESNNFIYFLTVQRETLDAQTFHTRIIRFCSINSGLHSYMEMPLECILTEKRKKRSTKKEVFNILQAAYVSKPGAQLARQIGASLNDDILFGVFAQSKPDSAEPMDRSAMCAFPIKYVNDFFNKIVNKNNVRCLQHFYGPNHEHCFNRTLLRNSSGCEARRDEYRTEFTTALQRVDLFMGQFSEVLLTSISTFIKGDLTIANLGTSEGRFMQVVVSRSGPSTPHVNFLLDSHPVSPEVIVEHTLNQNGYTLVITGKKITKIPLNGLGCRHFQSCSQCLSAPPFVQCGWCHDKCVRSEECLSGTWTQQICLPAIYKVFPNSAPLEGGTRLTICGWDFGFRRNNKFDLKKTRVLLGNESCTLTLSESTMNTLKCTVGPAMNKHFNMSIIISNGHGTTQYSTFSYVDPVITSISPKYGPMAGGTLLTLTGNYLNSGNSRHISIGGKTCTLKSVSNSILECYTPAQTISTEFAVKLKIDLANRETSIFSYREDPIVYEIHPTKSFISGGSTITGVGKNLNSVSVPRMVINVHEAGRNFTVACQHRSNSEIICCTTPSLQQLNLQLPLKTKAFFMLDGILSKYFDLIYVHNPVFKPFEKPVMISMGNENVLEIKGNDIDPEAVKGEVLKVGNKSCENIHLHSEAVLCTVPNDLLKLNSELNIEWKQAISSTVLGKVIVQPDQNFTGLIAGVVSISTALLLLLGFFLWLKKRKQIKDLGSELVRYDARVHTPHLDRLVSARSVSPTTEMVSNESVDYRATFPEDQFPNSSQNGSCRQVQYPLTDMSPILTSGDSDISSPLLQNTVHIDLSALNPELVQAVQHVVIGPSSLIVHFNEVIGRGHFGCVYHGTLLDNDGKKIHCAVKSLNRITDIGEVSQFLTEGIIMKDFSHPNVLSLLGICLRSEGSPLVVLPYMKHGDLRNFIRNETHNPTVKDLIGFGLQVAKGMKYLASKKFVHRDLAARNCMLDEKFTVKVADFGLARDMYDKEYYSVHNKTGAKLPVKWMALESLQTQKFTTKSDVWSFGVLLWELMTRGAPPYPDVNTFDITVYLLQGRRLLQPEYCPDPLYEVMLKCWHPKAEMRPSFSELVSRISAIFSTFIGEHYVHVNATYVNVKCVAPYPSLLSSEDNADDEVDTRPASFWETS
# runDescription: Whole cell ELISA of peptide-displaying phage
# Format: cell-based
# setupConditions: phage isolate; 3T3 cells expressing human cMet vs. non-expressing 3T3 cells
propertyName: WC ELISA (fold over background)

INSERT INTO measurements (orderedresidues, propertyname, unitslabel, number) VALUES
  ('AGETTCLGWPTFVCVDYGT (Synthetically generated cMet-binding peptide sequence) [SEQ ID NO: 063]', 'WC ELISA', 'fold over background', 1.27),
  ('AGPYSCHSESHDCKLMGT (Synthetically generated cMet-binding peptide sequence) [SEQ ID NO: 032]', 'WC ELISA', 'fold over background', 1.27),
  ('GDYYQCQFSKDMYSERCWPYDP (Synthetically generated cMet-binding peptide sequence) [SEQ ID NO: 397]', 'WC ELISA', 'fold over background', 1.30),
  ('AGYFHCSGSPWFQCDYYGT (Synthetically generated cMet-binding peptide sequence) [SEQ ID NO: 081]', 'WC ELISA', 'fold over background', 1.40),
  ('AGAFFCSGPPTFMCSLYGT (Synthetically generated cMet-binding peptide sequence) [SEQ ID NO: 098]', 'WC ELISA', 'fold over background', 1.27),
  ('AGGNWCSFYEELCEWLGT (Synthetically generated cMet-binding peptide sequence) [SEQ ID NO: 043]', 'WC ELISA', 'fold over background', 1.37),
  ('GDASWCDENSPAAWFYCELWDP (Synthetically generated cMet-binding peptide sequence) [SEQ ID NO: 394]', 'WC ELISA', 'fold over background', 1.37),
  ('AGSSPCKGWPTFECYFYGT (Synthetically generated cMet-binding peptide sequence) [SEQ ID NO: 087]', 'WC ELISA', 'fold over background', 1.30),
  ('AQMWHRVHDPGYTFEVTWLWDN (Synthetically generated cMet-binding peptide sequence) [SEQ ID NO: 488]', 'WC ELISA', 'fold over background', 1.27),
  ('AQMGHHWDVQWDYKLFHVARGD (Synthetically generated cMet-binding peptide sequence) [SEQ ID NO: 473]', 'WC ELISA', 'fold over background', 1.23),
  ('AGETFCVGNPSFECWSWGT (Synthetically generated cMet-binding peptide sequence) [SEQ ID NO: 094]', 'WC ELISA', 'fold over background', 1.27),
  ('AGTMYCLGPPTFICQQYGT (Synthetically generated cMet-binding peptide sequence) [SEQ ID NO: 084]', 'WC ELISA', 'fold over background', 1.23),
  ('GSFAPCGWPSFAIDCIAEAP (Synthetically generated cMet-binding peptide sequence) [SEQ ID NO: 367]', 'WC ELISA', 'fold over background', 1.30),
  ('AGVIVCNLSMMYCLYPGT (Synthetically generated cMet-binding peptide sequence) [SEQ ID NO: 023]', 'WC ELISA', 'fold over background', 1.33),
  ('AGYYGCKGPPTFECQWMGT (Synthetically generated cMet-binding peptide sequence) [SEQ ID NO: 049]', 'WC ELISA', 'fold over background', 1.33),
  ('GSFWNCTTDLGAMSDCGFFAP (Synthetically generated cMet-binding peptide sequence) [SEQ ID NO: 383]', 'WC ELISA', 'fold over background', 1.37),
  ('AQRDYLFYWNDGSYQPWQVFVG (Synthetically generated cMet-binding peptide sequence) [SEQ ID NO: 493]', 'WC ELISA', 'fold over background', 1.30),
  ('AGDGWCMAWPEICEWLGT (Synthetically generated cMet-binding peptide sequence) [SEQ ID NO: 014]', 'WC ELISA', 'fold over background', 1.33),
  ('AGMDFCEGFWFLCIGNAT (Synthetically generated cMet-binding peptide sequence) [SEQ ID NO: 035]', 'WC ELISA', 'fold over background', 1.23),
  ('AQDPGFSKHSMGHGYPSKMNWG (Synthetically generated cMet-binding peptide sequence) [SEQ ID NO: 471]', 'WC ELISA', 'fold over background', 1.27),
  ('AGAWNCEYPTFICEWQGA (Synthetically generated cMet-binding peptide sequence) [SEQ ID NO: 012]', 'WC ELISA', 'fold over background', 1.27),
  ('GSGDPCSPGPSINGHCSVMAP (Synthetically generated cMet-binding peptide sequence) [SEQ ID NO: 382]', 'WC ELISA', 'fold over background', 1.33),
  ('GSQQICDRKEYRFQACLSDAP (Synthetically generated cMet-binding peptide sequence) [SEQ ID NO: 371]', 'WC ELISA', 'fold over background', 1.40),
  ('GSMLGCLFEHQNKYDCYVLAP (Synthetically generated cMet-binding peptide sequence) [SEQ ID NO: 379]', 'WC ELISA', 'fold over background', 1.43),
  ('ADAWMCEYFQWNCGDKGT (Synthetically generated cMet-binding peptide sequence) [SEQ ID NO: 046]', 'WC ELISA', 'fold over background', 1.33),
  ('GSMNMCDTTDEISPTCHPSAP (Synthetically generated cMet-binding peptide sequence) [SEQ ID NO: 378]', 'WC ELISA', 'fold over background', 1.40);

* * *

# tgt: cMet-Fc fusion protein (Homo sapiens)
# Sequence (P08581 25-307 limits assumed): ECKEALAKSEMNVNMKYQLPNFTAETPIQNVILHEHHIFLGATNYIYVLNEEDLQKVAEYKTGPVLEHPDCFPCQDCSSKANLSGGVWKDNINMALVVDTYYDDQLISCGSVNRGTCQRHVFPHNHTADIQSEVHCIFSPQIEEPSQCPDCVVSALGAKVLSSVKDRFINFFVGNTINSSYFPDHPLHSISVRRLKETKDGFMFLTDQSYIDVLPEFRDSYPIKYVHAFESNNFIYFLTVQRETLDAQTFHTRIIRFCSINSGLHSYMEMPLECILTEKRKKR
# Sequence (P08581 with tags, fused parts or gaps limits assumed): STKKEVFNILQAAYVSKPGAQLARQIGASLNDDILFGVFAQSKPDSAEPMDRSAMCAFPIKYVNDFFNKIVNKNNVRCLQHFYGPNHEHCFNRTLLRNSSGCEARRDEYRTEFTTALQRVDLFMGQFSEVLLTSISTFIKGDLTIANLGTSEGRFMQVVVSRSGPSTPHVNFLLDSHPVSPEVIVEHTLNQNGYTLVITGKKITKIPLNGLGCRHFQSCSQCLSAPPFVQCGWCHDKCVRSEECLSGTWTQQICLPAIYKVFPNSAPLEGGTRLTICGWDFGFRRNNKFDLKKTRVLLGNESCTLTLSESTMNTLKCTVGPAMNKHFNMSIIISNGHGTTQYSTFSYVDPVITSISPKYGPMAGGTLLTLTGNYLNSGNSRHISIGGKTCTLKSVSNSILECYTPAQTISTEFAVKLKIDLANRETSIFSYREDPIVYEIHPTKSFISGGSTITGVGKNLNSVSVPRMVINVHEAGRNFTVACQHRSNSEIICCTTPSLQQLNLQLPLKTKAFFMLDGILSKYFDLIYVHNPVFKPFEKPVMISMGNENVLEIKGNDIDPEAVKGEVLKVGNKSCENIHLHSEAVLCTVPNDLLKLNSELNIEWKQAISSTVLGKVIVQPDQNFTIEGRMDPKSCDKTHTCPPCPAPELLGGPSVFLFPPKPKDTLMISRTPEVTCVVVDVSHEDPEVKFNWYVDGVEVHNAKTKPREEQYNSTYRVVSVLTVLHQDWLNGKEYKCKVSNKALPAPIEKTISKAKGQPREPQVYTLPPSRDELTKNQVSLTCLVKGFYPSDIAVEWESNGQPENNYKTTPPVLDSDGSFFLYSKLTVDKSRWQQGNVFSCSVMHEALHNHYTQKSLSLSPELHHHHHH
# runDescription: Protein phage ELISA: peptide-displaying phage binding to soluble cMet-Fc versus TRAIL-Fc
# setupConditions: phage isolate; cMet-Fc vs. TRAIL-Fc
propertyName: Protein ELISA (fold over background)

Here's what some known entries look like.
INSERT INTO measurements (orderedresidues, number) VALUES
  ('GSQNNCEYGSRGSSFCLAMAP (Synthetically generated cMet-binding peptide sequence) [SEQ ID NO: 377]', 6.4),
  ('GSMLMCELWWCRFLAP (Synthetically generated cMet-binding peptide sequence) [SEQ ID NO: 004]', 3.4);

P. AGVWICRVWDDECFFQGT (Synthetically generated cMet-binding peptide sequence) [SEQ ID NO: 020]
Q. AGVNSCLGPPTFECYQMGT (Synthetically generated cMet-binding peptide sequence) [SEQ ID NO: 076]
R. AGETFCVGNPSFECWSWGT (Synthetically generated cMet-binding peptide sequence) [SEQ ID NO: 094]
Please order the records by their reported Protein ELISA, lowest number first. Response format: the labels, sorted as the prompt asks.
P, Q, R

A. AQSDHDHAHWGVKHWPFRRYQ (Synthetically generated cMet-binding peptide sequence) [SEQ ID NO: 482]
B. AGGFACGPPWDICWMFGT (Synthetically generated cMet-binding peptide sequence) [SEQ ID NO: 011]
For the pair A and B , which member has the lower Protein ELISA number? # respond with the chosen item's label
A
(A: 3.1 fold over background, B: 5.6 fold over background)

1. AQMWHRVHDPGYTFEVTWLWDN (Synthetically generated cMet-binding peptide sequence) [SEQ ID NO: 488]
2. GSYYDCREFQCNKPAP (Synthetically generated cMet-binding peptide sequence) [SEQ ID NO: 002]
For the pair 1 and 2 , which member has the lower Protein ELISA number? # respond with the chosen item's label
1
(1: 3.0 fold over background, 2: 4.4 fold over background)

* * *

# tgt: 3T3 cells that over-express human cMet (Homo sapiens, UniProt P08581)
# Construct: expressed in transfected cells; host or cells: 3T3 cells
# runDescription: Whole cell ELISA of peptide-displaying phage
# Type: cell-based
# setupConditions: phage isolate; 3T3 cells expressing human cMet vs. non-expressing 3T3 cells
propertyName: WC ELISA (fold over background)

INSERT INTO results (orderedresidues, number) VALUES
  ('AQFDRYWHFAWMDVSFSSGQSG (Synthetically generated cMet-binding peptide sequence) [SEQ ID NO: 465]', 1.20),
  ('AGVWICRVWDDECFFQGT (Synthetically generated cMet-binding peptide sequence) [SEQ ID NO: 020]', 1.37),
  ('AGWWSCQWELNVCIWQGT (Synthetically generated cMet-binding peptide sequence) [SEQ ID NO: 016]', 1.33);

* * *

# tgt: 3T3 cells that over-express human cMet (Homo sapiens, UniProt P08581)
# Construct: expressed in transfected cells; host or cells: 3T3 cells
# runDescription: Whole cell ELISA of peptide-displaying phage
# Format: cell-based
# setupConditions: phage isolate; 3T3 cells expressing human cMet vs. non-expressing 3T3 cells
propertyName: WC ELISA (fold over background)

INSERT INTO measurements (orderedresidues, unitslabel, number) VALUES
  ('AGWTWCDLSMMSCIFHGT (Synthetically generated cMet-binding peptide sequence) [SEQ ID NO: 025]', 'fold over background', 1.37),
  ('AGLYLCDLSIMYCFFQGT (Synthetically generated cMet-binding peptide sequence) [SEQ ID NO: 015]', 'fold over background', 1.33),
  ('AQGGRYPFYDTDWFKWEMYVL (Synthetically generated cMet-binding peptide sequence) [SEQ ID NO: 496]', 'fold over background', 1.30),
  ('AQELFQILEKQMWSDFMEWATP (Synthetically generated cMet-binding peptide sequence) [SEQ ID NO: 474]', 'fold over background', 1.23),
  ('AQLFQYLWHDDPQGAFFQLSMW (Synthetically generated cMet-binding peptide sequence) [SEQ ID NO: 483]', 'fold over background', 1.23),
  ('AQGIAWQLEWSYMPQSPPSFDR (Synthetically generated cMet-binding peptide sequence) [SEQ ID NO: 495]', 'fold over background', 1.17);
